The measured values listed here are drawn from patent US20230227466A1.

# target_or_test_system: Rac-1 (Homo sapiens)
# test_summary: Ras GTP binding domain inhibition assay (labeled-GTP competition, cell-free)
# Set-up: made in house
# settings: without SOS, read-out: Rac-1: % inh.
assay_endpoint: inhibition at 20 µM

Some molecules with known inhibition at 20 µM results, for comparison:
molecule | inhibition at 20 µM
CO[C@H]1C[C@@H](Nc2nc(-c3nccn3C)nc3sc(-c4ccn(C(C)C)n4)c(C)c23)C1 | 1 to 25%
CC(C)OCCn1ccnc1-c1nc(O)c2scc(-c3ccccn3)c2n1 | 76 to 100%
CO[C@@H]1CC[C@H]1CNc1nc(-c2nccn2C)nc2sc(-c3ccn(C(C)C)n3)c(C)c12 (racemic) | 26 to 50%
Cc1c(-c2ccn(C(C)C)n2)sc2nc(-c3nccn3C)nc(NCCc3cn(C)cn3)c12 | 26 to 50%
CO[C@H]1C[C@@H](Nc2nc(-c3nccn3C)nc3sc(-c4cn(C)cn4)c(-c4ccccc4)c23)C1 | 51 to 75%

Okay, here is my list. What is inhibition at 20 µM for each of these?
1. COc1cc(Nc2nc(-c3nccn3C)nc3sc(-c4ccn(C(C)C)n4)c(C)c23)ncn1
2. Cn1ccc(-c2nc(O)c3scc(-c4ccccn4)c3n2)n1
3. CO[C@@H]1CC[C@H](Nc2nc(-c3nccn3C)nc3sc(-c4ccn(C(C)C)n4)c(-c4ccccc4)c23)C1
4. CO[C@H]1CC[C@@H](Nc2nc(C(=O)NC(C)C)nc3sccc23)C1 (racemic)
5. COC[C@@H]1CC[C@@H]1CNc1nc(-c2nccn2C)nc2sc(-c3ccn(C(C)C)n3)c(C)c12 (racemic)
6. CO[C@H]1CC[C@@H](Nc2nc(C(=O)N3CCOCC3)nc3sccc23)C1 (racemic)

Output:
1: 51 to 75%; 2: 26 to 50%; 3: 1 to 25%; 4: 1 to 25%; 5: 26 to 50%; 6: 0%

Okay, here is my list. What is inhibition at 20 µM for each of these?
1. O=C(Nc1ccccn1)c1nc(O)c2scc(-c3ccccn3)c2n1
2. COCC1CN(c2nc(-c3nccn3C)nc3sc(-c4ccn(C(C)C)n4)c(C)c23)CCO1 (racemic)
3. Cc1sc2c(O)nc(-c3ccccn3)nc2c1-c1ccccn1
4. CO[C@H]1CC[C@@H](Nc2nc(-c3nccn3C)nc3sccc23)C1 (racemic)
5. CO[C@@H]1CCCN(c2nc(-c3nccn3C)nc3sc(-c4ccn(C(C)C)n4)c(C)c23)C1
6. COC1CCCN(c2nc(-c3ccccn3)nc3sc(-c4ccn(C(C)C)n4)c(C)c23)C1 (racemic)

Output:
["0%", "76 to 100%", "76 to 100%", "76 to 100%", "0%", "26 to 50%"]

Okay, here is my list. What is inhibition at 20 µM for each of these?
1. Oc1nc(-c2ccc3[nH]ncc3n2)nc2c(-c3ccccn3)csc12
2. Oc1nc(-c2ccncn2)nc2c(-c3ccccn3)csc12
3. Cc1c(-c2ccn(C(C)C)n2)sc2nc(-c3nccn3C)nc(NCCC3CCC(=O)N3)c12 (racemic)
4. COCCNc1nc(-c2nccn2C)nc2sc(-c3ccn(C(C)C)n3)c(C)c12

Output:
1: 1 to 25%; 2: 51 to 75%; 3: 76 to 100%; 4: 76 to 100%
